Provide the recorded TGI for the entries that follow.
- Tested on: OVCAR-8 ovarian
- protocol.description: NCI tumour cell line growth inhibition, 48 h

Entry COC(=O)c1c[nH]c(=O)[nH]c1=O ; TGI = > 100 µM

TGI in this record for COC(=O)[C@H](C)N1C(=O)N[C@@H](C(C)C)C1=O : > 100 µM

Quick note, TGI for COc1ccccc1/C=C\c1cnnc2ccccc12 landed at > 10 µM

The compound listed as N/C(=N\NS(=O)(=O)c1ccccc1)Oc1ccc(Cl)cc1 has a reported TGI of > 100 µM

Lookup result for Cc1ccc2nc3c(C)c(Cl)c(=O)cc-3sc2c1 ; measured TGI: > 100 µM

Recorded result, COc1ccc(/C(C)=C(\c2ccc(Cl)cc2)c2ccc(OCCN3CCCC3)cc2)cc1 , TGI: 10.2 µM

Lab note: measured TGI of Cc1cc(C)cc(-n2c3nc(=O)n(C)c(=O)c-3nc3ccccc32)c1 was > 100 µM

Form: compound = C#CCNC(Cc1cnc[nH]1)C(=O)O (stereo unspecified) ; TGI = > 100 µM

For C=CCC(CNC(=O)OCc1ccccc1)O[Si](C)(C)C(C)(C)C (stereo unspecified) the compound record lists TGI as > 100 µM

TGI reading for Oc1ccc2oc3ncc(Cl)c(-c4ccccc4)c3c2c1 : > 100 µM

Reported TGI for N#Cc1cccc(NC(=O)c2ccc(C(=O)O)c(C(=O)c3ccc(C(=O)O)c(C(=O)Nc4cccc(C#N)c4)c3)c2)c1 was > 100 µM
